Measured values drawn from patent US11214803B2 for this set.

System: Yap1 mRNA
TEST_PROTOCOL: Dose-dependent inhibition of human Yap1 in A-431 cells (Example 7, 10,000 cells per well, RTS36584)
Format: cell-based
MEASUREMENT_SETUP: Table 59, 62.5 nM, free uptake, A-431 cells 10,000 cells per well, 48 hours
Strand notation (5' to 3'): a small letter for the sugar, then the base; units joined by * are phosphorothioate-linked, units joined directly phosphodiester-linked; [ ] holds rarer units or linkages, { } end groups; capitals alone tell only the bases. k = constrained ethyl (cEt); [5mC] = 5-methylcytosine; d = 2'-deoxy (DNA)
Measured Yap1 mRNA, % UTC values are reported for all entries that follow.
RESULT_TYPE: Yap1 mRNA, % UTC

> print(dat)
                                   substance        tgt       result.type  endpoint.value
 1  958758 (k[5mC]*kT*kA*dT*dT*d[5mC]*dA*dG*dT*dG*dA*dT*d[5mC]*kT*kG*k[5mC]; antisense) [compound 958758]  Yap1 mRNA  Yap1 mRNA, % UTC        66 % UTC
 2  958518 (k[5mC]*k[5mC]*kA*d[5mC]*dA*dG*dT*dA*dA*dT*dA*dG*d[5mC]*kT*k[5mC]*kT; antisense) [compound 958518]  Yap1 mRNA  Yap1 mRNA, % UTC        55 % UTC
 3  958623 (kT*kT*kG*dA*dT*dA*dT*dT*d[5mC]*d[5mC]*dG*d[5mC]*dA*kT*kT*kG; antisense) [compound 958623]  Yap1 mRNA  Yap1 mRNA, % UTC        62 % UTC
 4  958562 (k[5mC]*kA*kT*dT*dG*dA*dA*dA*dG*dA*d[5mC]*d[5mC]*d[5mC]*kT*kT*kA; antisense) [compound 958562]  Yap1 mRNA  Yap1 mRNA, % UTC        95 % UTC
 5  958767 (kA*k[5mC]*kG*dA*dA*dT*dA*dA*dG*dG*d[5mC]*dA*dT*kT*kA*kG; antisense) [compound 958767]  Yap1 mRNA  Yap1 mRNA, % UTC        57 % UTC
 6  715483 (k[5mC]*kT*k[5mC]*dT*dT*dT*dG*dG*dA*dA*dA*d[5mC]*d[5mC]*kA*kT*kT) [compound 715483]  Yap1 mRNA  Yap1 mRNA, % UTC        44 % UTC
 7  958563 (kA*kG*k[5mC]*dT*dT*dT*dT*dG*d[5mC]*d[5mC]*dA*dG*dG*kA*kG*kA; antisense) [compound 958563]  Yap1 mRNA  Yap1 mRNA, % UTC        54 % UTC
 8  958533 (kG*k[5mC]*kA*dT*dA*dG*dA*dA*dG*dT*dA*dG*dG*kA*kG*k[5mC]; antisense) [compound 958533]  Yap1 mRNA  Yap1 mRNA, % UTC        61 % UTC
 9  958573 (kG*kG*k[5mC]*dA*dA*dA*dT*dT*dA*dT*dA*dG*dG*k[5mC]*kA*k[5mC]; antisense) [compound 958573]  Yap1 mRNA  Yap1 mRNA, % UTC        56 % UTC
10  958498 (kG*kA*kG*dT*dA*dT*dG*dT*dG*dG*d[5mC]*dA*dA*kT*kA*kA; antisense) [compound 958498]  Yap1 mRNA  Yap1 mRNA, % UTC        21 % UTC
11  958597 (k[5mC]*k[5mC]*k[5mC]*dA*dA*dT*dA*d[5mC]*dA*dA*d[5mC]*d[5mC]*dA*kA*kG*kA; antisense) [compound 958597]  Yap1 mRNA  Yap1 mRNA, % UTC        46 % UTC
12  958603 (kT*kG*kG*dT*dA*dT*dG*dA*dA*dT*dT*d[5mC]*dT*kG*kA*kA; antisense) [compound 958603]  Yap1 mRNA  Yap1 mRNA, % UTC        27 % UTC
13  958572 (kA*kT*kT*dA*dT*dA*dG*dG*d[5mC]*dA*d[5mC]*dT*d[5mC]*k[5mC]*kT*kT; antisense) [compound 958572]  Yap1 mRNA  Yap1 mRNA, % UTC        77 % UTC

* * *

Test system: Yap1 mRNA
TEST_PROTOCOL: Dose-dependent inhibition of human Yap1 in A-431 cells (Example 8, 10,000 cells per well, RTS4814)
Assay type: cell-based
MEASUREMENT_SETUP: 125.0 nM; A-431 cells, 10,000 cells per well, free uptake, approximately 48 hours, RTS4814
Strand notation (5' to 3'): a small letter for the sugar, then the base; units joined by * are phosphorothioate-linked, units joined directly phosphodiester-linked; [ ] holds rarer units or linkages, { } end groups; capitals alone tell only the bases. k = constrained ethyl (cEt); [5mC] = 5-methylcytosine; d = 2'-deoxy (DNA)
# if value of Yap1 mRNA, % UTC reaches 20 % UTC, tag rule met; if it stays below, tag rule not met

> print(dat)
                                   substance  assigned.class
 1  1074414 (kA*kA*k[5mC]*dT*dG*dT*dG*dA*dA*dA*dG*dA*dG*kG*kT*k[5mC]; antisense) [compound 1074414]        rule met
 2  1075749 (kA*kA*kT*dT*dA*dT*dG*dA*dA*dT*dG*dA*dT*kG*kG*kG; antisense) [compound 1075749]        rule met
 3  1076530 (kA*kG*kT*dA*dT*dA*dA*dA*dG*d[5mC]*dA*dG*dG*kG*k[5mC]*kA; antisense) [compound 1076530]        rule met
 4  1076524 (kA*kA*kT*dT*dT*dA*dT*dA*dT*d[5mC]*dA*dG*dG*kT*k[5mC]*kA; antisense) [compound 1076524]        rule met
 5  1074851 (kA*kT*kT*dG*dT*dT*dA*dT*dG*dA*dT*dA*dG*kG*k[5mC]*kA; antisense) [compound 1074851]    rule not met
 6  1074221 (antisense kG*kA*kA*dT*dG*dA*dG*d[5mC]*dT*d[5mC]*dG*dA*dA*k[5mC]*kA*kT) [compound 1074221]        rule met
 7  1075983 (kA*kT*k[5mC]*dG*dA*dA*dA*dA*dG*d[5mC]*dA*dA*dA*k[5mC]*kT*k[5mC]; antisense) [compound 1075983]        rule met
 8  1076003 (kA*kA*kT*dT*dT*dA*dA*dT*dG*dG*d[5mC]*dT*dT*kG*k[5mC]*kA; antisense) [compound 1076003]        rule met
 9  1074736 (kT*k[5mC]*kA*dG*dT*dA*d[5mC]*dA*dG*dA*dG*dG*dG*k[5mC]*kA*kT; antisense) [compound 1074736]    rule not met
10  1074627 (DNA k[5mC]*k[5mC]*kT*dG*dT*dT*dA*dT*dG*dA*dA*d[5mC]*d[5mC]*k[5mC]*kT*kT; antisense) [compound 1074627]    rule not met
11  1076461 (kG*kA*kT*dT*dA*dA*dT*dA*dT*dA*dG*d[5mC]*d[5mC]*k[5mC]*k[5mC]*kT; antisense) [compound 1076461]        rule met

* * *

Measured URINE P/C ratio (total protein to creatinine ratio) values are reported for all entries that follow.
TEST_PROTOCOL: Tolerability in Sprague-Dawley rats, kidney function, urine total protein to creatinine ratio (Example 21)
MEASUREMENT_SETUP: male Sprague-Dawley rats, 50 mg/kg s.c. weekly for 6 weeks (7 doses)
Strand notation (5' to 3'): a small letter for the sugar, then the base; units joined by * are phosphorothioate-linked, units joined directly phosphodiester-linked; [ ] holds rarer units or linkages, { } end groups; capitals alone tell only the bases. e = 2'-O-(2-methoxyethyl) (MOE); k = constrained ethyl (cEt); [5mC] = 5-methylcytosine; d = 2'-deoxy (DNA); m = 2'-O-methyl
RESULT_TYPE: URINE P/C ratio (total protein to creatinine ratio)

> print(dat)
                                  substance  endpoint.value
1  1198873 (kA*kG*dT*dG*dT*dA*dT*dG*dT*d[5mC]*dA*kG*eA*kA*eG*kA; antisense) [compound 1198873]               9
2  1198312 (kG*k[5mC]*kA*d[5mC]*dT*dT*dT*dT*dA*d[5mC]*dA*dT*kT*eA*kG*eG) [compound 1198312]              60
3  1198615 (kT*kT*kA*dA*dA*dG*dT*dG*dT*dA*dT*dG*kT*k[5mC]*kA*eG) [compound 1198615]               8
4  1198874 (kA*kA*dG*dT*dG*dT*dA*dT*dG*dT*d[5mC]*kA*eG*kA*eA*kG) [compound 1198874]               9
5  1200857 (kA*kG*kT*dG*dT*mA*dT*dG*dT*d[5mC]*dA*dG*dA*kA*kG*kA; antisense) [compound 1200857]              52
6  1074756 (kG*k[5mC]*kA*d[5mC]*dT*dT*dT*dT*dA*d[5mC]*dA*dT*dT*kA*kG*kG) [compound 1074756]             167
7  1198612 (kA*kA*kG*dT*dG*dT*dA*dT*dG*dT*d[5mC]*dA*kG*kA*kA*eG) [compound 1198612]              11
